Data credit: PubChem BioAssay (NCI)

Attribute: TGI
- System: NCI/ADR-RES ovarian
- experiment.notes: NCI tumour cell line growth inhibition, 48 h
measured.metric: TGI

# compound, measured.target, result
rows = [
    ("COc1ccccc1-c1cc(=O)c2cc(C)cnc2[nH]1", "NCI/ADR-RES ovarian", "47.1 µM"),
    ("COC1C=COC2(C)Oc3c(C)c(O)c4c(c3C2=O)/C(=N/C2CCC(O)OC2C)C=C(NC(=O)/C(C)=C\\C(=O)C2CC2C(O)C(C)C(O)C(C)C(OC(C)=O)C1C)C4=O (stereo unspecified)", "NCI/ADR-RES ovarian", "50.4 µM"),
    ("COc1cc(N2C(=O)[C@H](O)C2c2ccc(SC)cc2)cc(OC)c1OC (stereo partly specified)", "NCI/ADR-RES ovarian", "> 100 µM"),
    ("O=C1NC(=O)C(N2C(=O)c3ccccc3C2=O)CC1O (stereo unspecified)", "NCI/ADR-RES ovarian", "> 100 µM"),
    ("CCN(CC)CC1CCCCN1CC(=O)N1c2ccccc2C(=O)Nc2cccnc21 (stereo unspecified)", "NCI/ADR-RES ovarian", "67.5 µM"),
    ("N#C[C@H](OC1OC(COC2OC(CO)C(O)C(O)C2O)C(O)C(O)C1O)c1ccccc1 (stereo partly specified)", "NCI/ADR-RES ovarian", "> 250 µM"),
    ("COc1ccc(-c2nc(Nc3cc(C)[nH]n3)c3ccccc3n2)cc1", "NCI/ADR-RES ovarian", "> 58.1 µM"),
    ("OCC12C3C4C5C3C1C5C42 (stereo unspecified)", "NCI/ADR-RES ovarian", "> 100 µM"),
    ("COc1cc(/C=C/c2nc(NC(=S)Nc3ccccc3)nnc2C)cc(OC)c1OC", "NCI/ADR-RES ovarian", "> 100 µM"),
    ("Cc1ccc(NC(Nc2ccc(C)cc2C)=C(/C=C(\\Cl)[N+](=O)[O-])[N+](=O)[O-])c(C)c1", "NCI/ADR-RES ovarian", "48.8 µM"),
    ("O=C(CCCN1CCC2(CC1)CC(c1ccccc1)OC2=O)c1ccc(F)cc1 (stereo unspecified)", "NCI/ADR-RES ovarian", "> 100 µM"),
]

---

- Test system: IGROV1 ovarian
- experiment.notes: NCI tumour cell line growth inhibition, 48 h; in the data active = GI50 below about 0.43 µM; inactive = the rest
Possible outcomes: yes (1) = active, no (0) = inactive

# compound, cat
measured = [
    ("CC(C)C[C@H](NC(=O)CNC(=O)c1cc(Cl)ccc1Cl)B1OC(=O)CC(CC(=O)O)(C(=O)O)O1 (some centres not stated)", "yes (1)"),
    ("COc1ccc(-c2cc(-c3ccc(C)cc3)nc3nc(=S)[nH]c(N)c23)cc1", "no (0)"),
    ("Cc1cc(S(=O)(=O)/N=C(/N)Nc2ccccc2O)c(SCc2ccccc2)cc1Cl", "no (0)"),
    ("CC1=C2[C@@H](CC1)[C@]1(C)O[C@@](c3ccccc3)(C[C@H]1OC(=O)CO)[C@H]2OC(=O)/C=C/c1ccccc1", "no (0)"),
    ("CN[C@@H](C)C(=O)N[C@H](C(=O)N1CCC[C@H]1C(=O)Nc1sc(-c2ncco2)nc1-c1ccccc1)C1CCCCC1", "no (0)"),
    ("O=C(/C=C/c1cc2ccccc2[nH]c1=O)/C=C/c1cc2ccccc2[nH]c1=O", "no (0)"),
    ("Cc1ccc(/C=N\\NC(=O)c2[nH]c3ccc(F)cc3c2-c2ccccc2)cc1", "yes (1)"),
    ("O=C1c2cccnc2C(=O)c2c1c(C(=O)NCCCN1CCCCC1)c1ccccn21", "no (0)"),
    ("COc1ccc(-c2[nH]c3ccccc3c2-c2ccc(OC)cc2)cc1", "no (0)"),
    ("O=C1OCC2=C1C(c1ccccc1)c1cc3c(cc1N2)OCO3 (configuration not stated)", "yes (1)"),
    ("O=C(Nc1ccc(OCc2nnc(-c3ccc(Cl)cc3)o2)c(F)c1)Nc1ccc(Cl)c(C(F)(F)F)c1", "no (0)"),
    ("CO/N=C(\\COc1ccc2c(c1)[nH]c1ccccc12)c1ccc(F)cc1", "no (0)"),
]

---

Attribute: TGI
- Test system: HOP-62 NSCLC
- experiment.notes: NCI tumour cell line growth inhibition, 48 h

# molecule, TGI
measured = [
    ("O=C1C(=C([O-])c2ccccc2)C(=O)c2ccccc21.O=C1C(=C([O-])c2ccccc2)C(=O)c2ccccc21.[Fe+2]", "> 100 µM"),
    ("Cc1ccc2c(C3Cc4ccccc4N3C(=O)/C=C\\C(=O)O)c(C)[nH]c2c1 (configuration not stated)", "> 100 µM"),
    ("c1cnn2ncc(-c3ccnc(NCCCN4CCOCC4)n3)c2c1", "> 16.6 µM"),
    ("CC#CCC1CCC(OCC)=CC1=O (configuration not stated)", "> 100 µM"),
    ("Cn1c(=O)c2c(nc3n2CC(=O)N3CCCCl)n(C)c1=O", "> 100 µM"),
    ("O=C1OC(=O)C(=C\\c2ccc3c(c2)OCO3)/C1=C/c1ccc2c(c1)OCO2", "> 100 µM"),
    ("CC(C)(C)OC(=O)N/N=C(/N)Cc1ccc(Cl)cc1", "> 100 µM"),
    ("CC(=O)Nc1ccc(C(O)/C(=N/N)c2nc3ccc(Cl)cc3[nH]c2=O)cc1 (configuration not stated)", "> 100 µM"),
    ("COC1C=COC2(C)Oc3c(C)c(O)c4c(c3C2=O)/C(=N/C2CCC(O)OC2C)C=C(NC(=O)/C(C)=C\\C(=O)C2CC2C(O)C(C)C(O)C(C)C(OC(C)=O)C1C)C4=O (configuration not stated)", "8.75 µM"),
    ("CCC(CCCN)Nc1cc(OC)cc2c(C)ccnc12 (configuration not stated)", "29.2 µM"),
    ("CCC(C=O)P1(=O)OC(C)(C)CN1C(C)(C)C (configuration not stated)", "> 100 µM"),
    ("COc1cccc(OC(=O)c2ccc(C(F)(F)F)nc2Nc2cc(Cl)ccc2C)c1", "36.1 µM"),
    ("CCCCCCCOc1ccc(/C=C\\c2cc[n+](CCCCCCCC[n+]3ccc(/C=C\\c4ccc(OCCCCCCC)cc4)cc3)cc2)cc1", "> 100 µM"),
    ("O=C(O)C12C3CCC(CC3)C1(C(=O)O)C1CCC2C1 (configuration not stated)", "> 100 µM"),
    ("Cc1[nH]c2ccccc2c1C(=O)CC1(O)C(=O)Nc2c(Cl)cc(Cl)cc21 (configuration not stated)", "> 100 µM"),
    ("O=c1[nH]cc(-c2c[nH]c3ccccc23)nc1-c1c[nH]c2ccccc12", "27.3 µM"),
    ("O=C(CCCN1CCC2(CC1)CC(c1ccccc1)OC2=O)c1ccc(F)cc1 (configuration not stated)", "73.7 µM"),
    ("O=C(CCl)NNC1=Nc2ccc(Cl)cc2SC1", "31.8 µM"),
    ("CCN1CCC(C)OP1(=O)Cc1ccccc1 (configuration not stated)", "> 100 µM"),
    ("NCCSS(=O)(=O)CCN", "> 100 µM"),
    ("O=C1OCC2=C1C(c1ccccc1)c1cc3c(cc1N2)OCO3 (configuration not stated)", "33.4 µM"),
    ("CCOC(=O)C1C(=S)NC(=O)C1C#N (configuration not stated)", "> 100 µM"),
]

---

- System: HT29 colon
- experiment.notes: NCI tumour cell line growth inhibition, 48 h
Attribute: TGI
measured.metric: TGI

# compound, result
records = [
    ("N#C[C@H](OC1OC(COC2OC(CO)C(O)C(O)C2O)C(O)C(O)C1O)c1ccccc1 (stereo partly specified)", "> 250 µM"),
    ("COc1ccc(C(=O)/C=C/c2ccc(O)c(O)c2)c(OC)c1", "32 µM"),
    ("CCOC(=O)C1C(c2ccc3c(c2)OCO3)c2c([nH][nH]c2=O)CC1(C)O (stereo unspecified)", "> 100 µM"),
    ("COc1ccc2cc1Oc1ccc(cc1)C[C@H]1c3c(cc4c(c3Oc3cc5c(cc3OC)CCN(C)[C@@H]5C2)OCO4)CCN1C", "2.56 µM"),
    ("O=C(O)c1cc2c(ncc3c(=O)n(-c4ccccc4)[nH]c32)s1", "> 100 µM"),
    ("O=C1OCC2=C1C(c1ccccc1)c1cc3c(cc1N2)OCO3 (stereo unspecified)", "> 59 µM"),
    ("O=C(c1ccccc1)c1ccc2nc(-c3c(Cl)c(Cl)c(Cl)c(Cl)c3C(=O)N/N=C/c3ccc(Cl)cc3)[nH]c2c1", "> 100 µM"),
    ("C#C[C@]1(O)CCCC2=CC(=O)CC[C@@]21C", "> 100 µM"),
    ("Cn1c(=O)c2c(nc3n2CC(=O)N3CCCCl)n(C)c1=O", "> 100 µM"),
    ("COC1C=COC2(C)Oc3c(C)c(O)c4c(c3C2=O)/C(=N/C2CCC(O)OC2C)C=C(NC(=O)/C(C)=C\\C(=O)C2CC2C(O)C(C)C(O)C(C)C(OC(C)=O)C1C)C4=O (stereo unspecified)", "2.71 µM"),
    ("O=c1nc(NC2CCCCO2)ccn1CCO (stereo unspecified)", "> 100 µM"),
    ("CCOC(=O)C1=NOC2(C=C(Br)C(=O)C(Br)=C2)C1", "4.68 µM"),
    ("CC(=O)/C=C/c1cn(C(=O)OC(C)(C)C)c2ccc(Br)cc12", "24.8 µM"),
    ("O=C(NN1C(=O)CSC12CCCCC2)c1[nH]c2ccc(Br)cc2c1-c1ccccc1", "31.5 µM"),
    ("O=C1NC(=O)C2C(=O)NC(=O)C1C2c1c(Cl)cccc1Cl (stereo unspecified)", "> 100 µM"),
    ("CCCCn1c(N)c(-c2nc3ccccc3o2)sc1=S", "78 µM"),
    ("COc1cccc(OC)c1C(=O)OCc1ccccc1", "> 100 µM"),
    ("Oc1ccc(-c2cc(-c3cc(-c4ccc(O)cc4)no3)on2)cc1", "> 100 µM"),
    ("CN(C)CCCN1c2ccccc2Sc2ccc3ccccc3c21", "12.5 µM"),
    ("COc1c(F)c(F)c(/C(O)=C\\c2nc3ccccc3[nH]c2=O)c(F)c1F", "> 10 µM"),
    ("NCCSS(=O)(=O)CCN", "> 100 µM"),
]
